- subjectOfTest: human Kv7.2 (Homo sapiens (Human), UniProt O43526)
- assayDetails: SyncroPatch 384 electrophysiology, activation of Kv7.2 in CHO cells
- Assay type: cell-based
- experimentalConditions: CHO; Kv7.2 activation max %, relative to 30 μM ML-213 max activation

molecule | Emax / %
O=C(NCc1ccnc(Cl)c1)N[C@@H]1C[C@H]1c1ccccc1 | 60
O=C(NCc1cc(OC(F)F)ncn1)N[C@H]1C[C@@H]1C(F)(F)F | 43
O=C(NCc1ccnc(-n2ccc(C(F)(F)F)n2)c1)N[C@@H]1C[C@H]1c1ccccc1 | 78
COc1cc(CNC(=O)N[C@@H]2C[C@H]2c2ccccc2)ccn1 [Example 9] | 78
O=C(NCc1ccnc(OCC(F)F)c1)N[C@@H]1C[C@H]1c1ccccc1 | 66

###

- subjectOfTest: UniProt:O43526
- assayDetails: SyncroPatch 384 electrophysiology, activation of Kv7.2 in CHO cells
- experimentalConditions: CHO cells stably expressing human Kv7.2; potassium current at -90 mV repolarizing step, in presence of zinc pyrithione
# strict inequality: EC50 < 1 µM yields label 1, everything else yields label 0

compound | discreteLabel
O=C(NCc1ccnc(C(F)F)c1)N[C@@H]1C[C@H]1c1ccccc1 | label 0
C[C@H]1[C@H](NC(=O)NCc2ccnc(OC(F)F)c2)C1(F)F (racemic) | label 0
[2H]C([2H])(NC(=O)N[C@@H]1C[C@H]1C(F)(F)F)c1ccnc(OC(F)F)c1 (racemic) | label 1
O=C(NCc1ccnc(OCC(F)F)c1)N[C@@H]1C[C@H]1c1ccccc1 | label 1
O=C(NCc1ccnc(Oc2ccccc2)c1)N[C@@H]1C[C@H]1c1ccccc1 | label 0
C[C@H](NC(=O)N[C@@H]1C[C@H]1c1ccccc1)c1ccnc(OC(F)F)c1 | label 1
O=C(NCc1cc(OCC(F)(F)F)ncn1)N[C@@H]1C[C@H]1C(F)(F)F (racemic) | label 1
O=C(NCc1ccnc(OC2CCOCC2)c1)NC1CC1C1CCCCC1 (stereo not shown) | label 1
O=C(NCc1ccnc(OCC(F)(F)F)c1)N[C@@H]1C[C@H]1c1ccccc1 | label 1
N#Cc1cccc(CNC(=O)N[C@@H]2C[C@H]2c2ccccc2)n1 | label 0
O=C(NCc1ccnc(-c2cnsc2)c1)N[C@@H]1C[C@H]1C1CCCCC1 (racemic) | label 1
O=C(NCc1ccnc(OCF)c1)N[C@@H]1C[C@H]1c1ccccc1 | label 1
C[C@]1(C(F)(F)F)C[C@@H]1NC(=O)NCc1ccnc(OC(F)F)c1 (racemic) | label 1
CC(C)Oc1cc(CNC(=O)N[C@@H]2C[C@H]2c2ccccc2)ccn1 | label 1
O=C(NCc1ccnc(-n2ccnc2)c1)N[C@@H]1C[C@H]1c1ccccc1 | label 0
O=C(NCc1ccnc(Cl)c1)N[C@@H]1C[C@H]1C1CCCCC1 (racemic) | label 0
O=C(NCc1ccnc(OC(F)(F)F)c1)N[C@@H]1C[C@H]1c1ccccc1 | label 0
O=C(NCc1cccc(Cl)n1)N[C@@H]1C[C@H]1C1CCCCC1 (racemic) | label 0
O=C(NCc1ccnc(C(F)(F)F)c1)N[C@@H]1C[C@H]1c1ccccc1 | label 1
N#Cc1cc(CNC(=O)N[C@@H]2C[C@H]2c2ccccc2)ccn1 [Example 10] | label 0
O=C(NCc1ccnc(OC(F)F)n1)N[C@@H]1C[C@H]1C(F)(F)F | label 0
C[C@@H](NC(=O)N[C@@H]1C[C@H]1c1ccccc1)c1ccnc(OC(F)F)c1 (stereo in doubt) | label 0
O=C(NCc1ccnc(-c2cnco2)c1)N[C@@H]1C[C@H]1C1CCCCC1 (racemic) | label 1
COc1cc(CNC(=O)N[C@@H]2C[C@H]2c2ccccc2)ccn1 [Example 9] | label 0
O=C(NCc1ccnc(OC2CCOCC2)c1)N[C@@H]1C[C@H]1c1ccccc1 | label 0
CC(F)(F)c1cc(CNC(=O)N[C@@H]2C[C@H]2c2ccccc2)ccn1 | label 0
O=C(NCc1ccnc(OC2CCC2)c1)N[C@@H]1C[C@H]1c1ccccc1 | label 0
CC(C)c1nccc(CNC(=O)N[C@@H]2C[C@H]2C2CCCCC2)n1 (racemic) | label 0
C[C@H](NC(=O)N[C@@H]1C[C@H]1c1ccccc1)c1ccnc(-n2cnc(C(F)(F)F)c2)c1 | label 1
N#Cc1ccnc(CNC(=O)N[C@@H]2C[C@H]2c2ccccc2)c1 | label 0
O=C(NCc1ccnc(-n2cccn2)c1)N[C@@H]1C[C@H]1c1ccccc1 [Example 13] | label 0
O=C(NCc1ccnc(OCC(F)CF)c1)N[C@@H]1C[C@H]1c1ccccc1 (stereo partly shown) | label 1
COc1cc(CNC(=O)N[C@@H]2C[C@H]2c2ccccc2)ccn1 (racemic) [Example 5] | label 0
